All values here come from patent US10144715B2.

Would you kindly list pEC50 for each of these molecules?
- Tested System: Gal4 DNA binding domain fused to the LBD of LXRβ in HEK293 cells (Homo sapiens (Human))
- Sequence (P55055 222-460 limits assumed): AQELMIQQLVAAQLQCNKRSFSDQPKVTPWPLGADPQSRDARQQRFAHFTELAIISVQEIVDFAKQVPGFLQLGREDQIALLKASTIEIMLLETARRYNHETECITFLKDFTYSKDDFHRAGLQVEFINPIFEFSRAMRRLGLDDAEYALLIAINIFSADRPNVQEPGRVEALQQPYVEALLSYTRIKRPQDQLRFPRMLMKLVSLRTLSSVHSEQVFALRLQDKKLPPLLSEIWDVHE
- Assay Comment: cell-based
A value of pEC50 is the negative decimal logarithm of a concentration given in moles per litre.

// pEC50 value for CC(C)[C@H]1CN(c2ccc(CO)c(S(C)(=O)=O)c2)CCN1Cc1ccc(C(F)(F)F)o1 : 6.61

// pEC50 value for CC1(C)CCC(O)(CN2CCN(c3cccc(S(C)(=O)=O)c3)C[C@@H]2c2ccccc2)CC1 : 5.99

// pEC50 value for CC(C)[C@H]1CN(c2ccc(CO)c(S(C)(=O)=O)c2)CCN1Cc1ccc(C(F)(F)F)cc1 : 6.80

// pEC50 value for CS(=O)(=O)c1cccc(N2CCN(c3nccc(C(F)(F)F)n3)[C@H](c3ccc(F)cc3)C2)c1 : 6.31

// pEC50 value for CCOC(=O)c1cnc(N2CCN(c3ccc(-c4nnc(C)o4)c(S(C)(=O)=O)c3)C[C@H]2C(C)C)nc1C(F)(F)F : 6.06

// pEC50 value for CC(C)[C@@H]1CN(c2ccc(-c3nc(C#N)cs3)c(S(C)(=O)=O)c2)CCN1c1ncc(CO)c(C(F)(F)F)n1 : 7.39

// pEC50 value for CS(=O)(=O)c1cccc(N2CCN(Cc3ccc(C(F)(F)F)cc3)[C@@H](c3ccccc3)C2)c1 (single isomer, unassigned) : 6.14

// pEC50 value for CC(C)[C@@H]1CN(c2ccc(F)c(S(C)(=O)=O)c2)CCN1c1nc2cnccc2s1 : 5.94

// pEC50 value for CC(C)[C@@H]1CN(c2cccc(S(C)(=O)=O)c2)CCN1c1ccc(C(F)(F)F)c(C2CC2)n1 : 6.67

// pEC50 value for CC(C)[C@@H]1CN(c2cc(S(C)(=O)=O)c(CO)cc2F)CCN1c1ncc(C(N)=O)c(C(F)(F)F)n1 : 6.85

// pEC50 value for COC(c1cnc(N2CCN(c3ccc(F)c(S(C)(=O)=O)c3)C[C@H]2C(C)C)nc1)C(F)(F)F (stereo partly shown) : 6.91

// pEC50 value for CC(=O)c1cnc(N2CCN(c3ccc(F)c(S(C)(=O)=O)c3)C[C@H]2c2ccc(F)cc2)nc1C(F)(F)F : 6.44

// pEC50 value for COC(=O)c1ccnc(N2CCN(c3ccc(F)c(S(C)(=O)=O)c3)C[C@H]2C(C)C)n1 : 6.67

// pEC50 value for CC(C)[C@@H]1CN(c2ccc(F)c(S(C)(=O)=O)c2)CCN1c1ncc([C@@H](C)O)c(C(F)(F)F)n1 : 7.08

// pEC50 value for CC(C)[C@@H]1CN(c2ccc(F)c(S(C)(=O)=O)c2)CCN1c1ncc(C(N)=O)c(C(F)(F)F)n1 : 7.04

// pEC50 value for CC(C)[C@@H]1CN(c2ccc(C#N)c(S(C)(=O)=O)c2)CCN1c1ncc([C@H](C)O)c(C(F)(F)F)n1 (single isomer, unassigned) : 6.28

// pEC50 value for CC(=O)c1cnc(N2CCN(c3ccc(F)c(S(C)(=O)=O)c3)C[C@H]2C(C)C)nc1C(F)(F)F : 7.31

// pEC50 value for CC(C)[C@@H]1CN(c2ccc(F)c(S(C)(=O)=O)c2)CCN1C(=O)OC(C)(C)C : 6.16

// pEC50 value for CC(C)[C@H]1CN(c2cccc(S(C)(=O)=O)c2)CCN1C[C@H]1CC[C@@H](C(F)(F)F)OC1 (single isomer, unassigned) : 6.58

// pEC50 value for CC(C)[C@@H]1CN(c2ccc(F)c(S(C)(=O)=O)c2)CCN1c1nccc(C#N)n1 : 6.39

// pEC50 value for CS(=O)(=O)c1cccc(N2CCN(Cc3ccc(C(F)(F)F)nc3)[C@@H](c3ccccc3Cl)C2)c1 (single isomer, unassigned) : 6.42

// pEC50 value for CC(C)[C@H]1CN(c2ccc(CO)c(S(C)(=O)=O)c2)CCN1C[C@H]1CC[C@H](C(F)(F)F)OC1 (single isomer, unassigned) : 7.11

// pEC50 value for CS(=O)(=O)c1cccc(N2CCN(Cc3ccc(C(F)(F)F)c(F)c3)[C@@H](c3ccccc3)C2)c1 (single isomer, unassigned) : 6.17

// pEC50 value for CNS(=O)(=O)c1cc(N2CCN(c3ncc(C(C)(C)O)c(C(F)(F)F)n3)[C@H](C(C)C)C2)ccc1F : 7.16
